Target Or System: UniProt:P00383
Sequence (P00383 1-78): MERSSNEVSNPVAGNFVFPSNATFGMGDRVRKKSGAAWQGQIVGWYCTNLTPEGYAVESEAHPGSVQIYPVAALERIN
Protocol Text: steady-state DHFR inhibition, Lineweaver–Burk slope replot
Format: biochemical
pKi: −log10 of the molar value.

# Compound, Target Or System, pKi
measured = [
    ("NCCNC(=O)CC[C@H](NC(=O)c1ccc(NCc2cnc3nc(N)[nH]c(=O)c3n2)cc1)C(=O)NCCN [bis-EDA–folate]", "UniProt:P00383", 3.85),
]

---

Target Or System: UniProtKB P00383
Protocol Text: steady-state DHFR inhibition vs DHF
Format: biochemical
pKi: −log10 of the molar value.

# Compound, pKi
records = [
    ("Nc1nc(=O)c2nc(CNc3ccc(C(=O)N[C@@H](CCC(=O)O)C(=O)O)cc3)cnc2[nH]1 [folate]", 4.80),
]
